- Study conditions: in ethylene glycol, 323.15 K
Readout kind: solubility (mole fraction)
Number only, no unit.

Task: Reported solubility (mole fraction), compound CC(=O)Nc1ccc([N+](=O)[O-])cc1 : ____
Result: 0.00451

* * *

- Study conditions: in n-heptanol, 313.15 K
Readout kind: solubility (mole fraction)
Number only, no unit.

Task: Reported solubility (mole fraction), compound CC(=O)Nc1ccc([N+](=O)[O-])cc1 : ____
Result: 0.00911

* * *

- Study conditions: in NMP, 288.15 K
Readout kind: solubility (mole fraction)
Number only, no unit.

Task: Reported solubility (mole fraction), molecule CC(=O)Nc1ccc([N+](=O)[O-])cc1 : ____
Result: 0.0984

* * *

- Study conditions: in n-heptanol, 318.15 K
Readout kind: solubility (mole fraction)
Number only, no unit.

Task: Reported solubility (mole fraction), molecule CC(=O)Nc1ccc([N+](=O)[O-])cc1 : ____
Result: 0.0108

* * *

- Study conditions: in ethanol, 283.15 K
Readout kind: solubility (mole fraction)
Number only, no unit.

Task: Reported solubility (mole fraction), compound CC(=O)Nc1ccc([N+](=O)[O-])cc1 : ____
Result: 0.00222

* * *

- Study conditions: in NMP, 293.15 K
Readout kind: solubility (mole fraction)

Task: Reported solubility (mole fraction), molecule CC(=O)Nc1ccc([N+](=O)[O-])cc1 : ____
Result: 0.111

* * *

- Study conditions: in isopropanol, 298.15 K
Readout kind: solubility (mole fraction)
Number only, no unit.

Task: Reported solubility (mole fraction), compound CC(=O)Nc1ccc([N+](=O)[O-])cc1 : ____
Result: 0.00348

* * *

- Study conditions: in isopropanol, 303.15 K
Readout kind: solubility (mole fraction)
Number only, no unit.

Task: Reported solubility (mole fraction), compound CC(=O)Nc1ccc([N+](=O)[O-])cc1 : ____
Result: 0.00436

* * *

- Study conditions: in isobutanol, 323.15 K
Readout kind: solubility (mole fraction)
Number only, no unit.

Task: Reported solubility (mole fraction), compound CC(=O)Nc1ccc([N+](=O)[O-])cc1 : ____
Result: 0.00728

* * *

- Study conditions: in water, 283.15 K
Readout kind: solubility (mole fraction)
Number only, no unit.

Task: Reported solubility (mole fraction), molecule CC(=O)Nc1ccc([N+](=O)[O-])cc1 : ____
Result: 7.72e-06

* * *

- Study conditions: in ethylene glycol, 293.15 K
Readout kind: solubility (mole fraction)
Number only, no unit.

Task: Reported solubility (mole fraction), compound CC(=O)Nc1ccc([N+](=O)[O-])cc1 : ____
Result: 0.00141

* * *

- Study conditions: in DMF, 308.15 K
Readout kind: solubility (mole fraction)
Number only, no unit.

Task: Reported solubility (mole fraction), molecule CC(=O)Nc1ccc([N+](=O)[O-])cc1 : ____
Result: 0.145

* * *

- Study conditions: in water, 318.15 K
Readout kind: solubility (mole fraction)
Number only, no unit.

Task: Reported solubility (mole fraction), compound CC(=O)Nc1ccc([N+](=O)[O-])cc1 : ____
Result: 4.69e-05

* * *

- Study conditions: in n-butanol, 298.15 K
Readout kind: solubility (mole fraction)

Task: Reported solubility (mole fraction), compound CC(=O)Nc1ccc([N+](=O)[O-])cc1 : ____
Result: 0.0043

* * *

- Study conditions: in NMP, 303.15 K
Readout kind: solubility (mole fraction)
Number only, no unit.

Task: Reported solubility (mole fraction), molecule CC(=O)Nc1ccc([N+](=O)[O-])cc1 : ____
Result: 0.144

* * *

- Study conditions: in acetonitrile, 288.15 K
Readout kind: solubility (mole fraction)
Number only, no unit.

Task: Reported solubility (mole fraction), compound CC(=O)Nc1ccc([N+](=O)[O-])cc1 : ____
Result: 0.00325

* * *

- Study conditions: in n-butanol, 323.15 K
Readout kind: solubility (mole fraction)
Number only, no unit.

Task: Reported solubility (mole fraction), molecule CC(=O)Nc1ccc([N+](=O)[O-])cc1 : ____
Result: 0.0106

* * *

- Study conditions: in acetonitrile, 283.15 K
Readout kind: solubility (mole fraction)
Number only, no unit.

Task: Reported solubility (mole fraction), compound CC(=O)Nc1ccc([N+](=O)[O-])cc1 : ____
Result: 0.00271

* * *

- Study conditions: in ethyl acetate, 323.15 K
Readout kind: solubility (mole fraction)
Number only, no unit.

Task: Reported solubility (mole fraction), molecule CC(=O)Nc1ccc([N+](=O)[O-])cc1 : ____
Result: 0.0171

* * *

- Study conditions: in isobutanol, 298.15 K
Readout kind: solubility (mole fraction)
Number only, no unit.

Task: Reported solubility (mole fraction), molecule CC(=O)Nc1ccc([N+](=O)[O-])cc1 : ____
Result: 0.00284

* * *

- Study conditions: in isobutanol, 308.15 K
Readout kind: solubility (mole fraction)
Number only, no unit.

Task: Reported solubility (mole fraction), compound CC(=O)Nc1ccc([N+](=O)[O-])cc1 : ____
Result: 0.00405

* * *

- Study conditions: in DMF, 303.15 K
Readout kind: solubility (mole fraction)
Number only, no unit.

Task: Reported solubility (mole fraction), compound CC(=O)Nc1ccc([N+](=O)[O-])cc1 : ____
Result: 0.135

* * *

- Study conditions: in isobutanol, 293.15 K
Readout kind: solubility (mole fraction)
Number only, no unit.

Task: Reported solubility (mole fraction), molecule CC(=O)Nc1ccc([N+](=O)[O-])cc1 : ____
Result: 0.00233

* * *

- Study conditions: in n-propanol, 323.15 K
Readout kind: solubility (mole fraction)
Number only, no unit.

Task: Reported solubility (mole fraction), molecule CC(=O)Nc1ccc([N+](=O)[O-])cc1 : ____
Result: 0.0101

* * *

- Study conditions: in DMF, 278.15 K
Readout kind: solubility (mole fraction)
Number only, no unit.

Task: Reported solubility (mole fraction), compound CC(=O)Nc1ccc([N+](=O)[O-])cc1 : ____
Result: 0.102

* * *

- Study conditions: in ethanol, 288.15 K
Readout kind: solubility (mole fraction)
Number only, no unit.

Task: Reported solubility (mole fraction), molecule CC(=O)Nc1ccc([N+](=O)[O-])cc1 : ____
Result: 0.00265

* * *

- Study conditions: in ethyl acetate, 283.15 K
Readout kind: solubility (mole fraction)
Number only, no unit.

Task: Reported solubility (mole fraction), compound CC(=O)Nc1ccc([N+](=O)[O-])cc1 : ____
Result: 0.00414

* * *

- Study conditions: in NMP, 278.15 K
Readout kind: solubility (mole fraction)
Number only, no unit.

Task: Reported solubility (mole fraction), compound CC(=O)Nc1ccc([N+](=O)[O-])cc1 : ____
Result: 0.0745

* * *

- Study conditions: in water, 278.15 K
Readout kind: solubility (mole fraction)
Number only, no unit.

Task: Reported solubility (mole fraction), compound CC(=O)Nc1ccc([N+](=O)[O-])cc1 : ____
Result: 6.37e-06

* * *

- Study conditions: in n-butanol, 318.15 K
Readout kind: solubility (mole fraction)
Number only, no unit.

Task: Reported solubility (mole fraction), molecule CC(=O)Nc1ccc([N+](=O)[O-])cc1 : ____
Result: 0.00894

* * *

- Study conditions: in isopropanol, 293.15 K
Readout kind: solubility (mole fraction)
Number only, no unit.

Task: Reported solubility (mole fraction), compound CC(=O)Nc1ccc([N+](=O)[O-])cc1 : ____
Result: 0.00292

* * *

- Study conditions: in n-heptanol, 308.15 K
Readout kind: solubility (mole fraction)
Number only, no unit.

Task: Reported solubility (mole fraction), compound CC(=O)Nc1ccc([N+](=O)[O-])cc1 : ____
Result: 0.00742

* * *

- Study conditions: in DMF, 283.15 K
Readout kind: solubility (mole fraction)
Number only, no unit.

Task: Reported solubility (mole fraction), compound CC(=O)Nc1ccc([N+](=O)[O-])cc1 : ____
Result: 0.107

* * *

- Study conditions: in NMP, 308.15 K
Readout kind: solubility (mole fraction)
Number only, no unit.

Task: Reported solubility (mole fraction), molecule CC(=O)Nc1ccc([N+](=O)[O-])cc1 : ____
Result: 0.163

* * *

- Study conditions: in cyclohexane, 323.15 K
Readout kind: solubility (mole fraction)
Number only, no unit.

Task: Reported solubility (mole fraction), compound CC(=O)Nc1ccc([N+](=O)[O-])cc1 : ____
Result: 1.91e-05

* * *

- Study conditions: in methanol, 313.15 K
Readout kind: solubility (mole fraction)
Number only, no unit.

Task: Reported solubility (mole fraction), compound CC(=O)Nc1ccc([N+](=O)[O-])cc1 : ____
Result: 0.00543

* * *

- Study conditions: in ethylene glycol, 288.15 K
Readout kind: solubility (mole fraction)
Number only, no unit.

Task: Reported solubility (mole fraction), compound CC(=O)Nc1ccc([N+](=O)[O-])cc1 : ____
Result: 0.00114

* * *

- Study conditions: in 1,4-dioxane, 293.15 K
Readout kind: solubility (mole fraction)
Number only, no unit.

Task: Reported solubility (mole fraction), molecule CC(=O)Nc1ccc([N+](=O)[O-])cc1 : ____
Result: 0.00697
